Listed compounds paired with reported log10 clearance
Test: Plasma clearance was estimated from the AUC after 5 mg/kg intravenous dosing in rats
Type: ADME, organism-based
Set-up: dose 5 mg/kg, route intravenous
Details: rat
Hi team, quick reminder: these entries are log10 of clearance (mL/min/kg).

Could you tell me which log10 clearance is on file for CC(CSC(CCc1ccccc1C(C)(C)O)c1cccc(OCc2ccc3ccc(Cl)cc3n2)c1)C(=O)[O-].[Na+] (stereo not given) ?
1.08

Could you tell me which log10 clearance is on file for CCNC(=O)c1ccccc1CCC(SCC(CC)C(=O)[O-])c1cccc(OCc2ccc3ccc(Cl)cc3n2)c1.[Na+] (stereo not given) ?
2.03

Could you tell me which log10 clearance is on file for CN(C)C(=O)c1ccccc1CCC(SCCC(=O)[O-])c1cccc(OCc2ccc3ccc(Cl)cc3n2)c1.[Na+] (stereo not given) ?
1.81

Could you tell me which log10 clearance is on file for CCC(CSC(CCc1ccccc1C(=O)NS(=O)(=O)c1ccccc1C)c1cccc(OCc2ccc3ccc(Cl)cc3n2)c1)C(=O)[O-].[Na+] (stereo not given) ?
1.18

Could you tell me which log10 clearance is on file for CCC(CSC(CCc1ccccc1S(C)(=O)=O)c1cccc(OCc2ccc3ccc(Cl)cc3n2)c1)C(=O)[O-].[Na+] (stereo not given) ?
1.54

Could you tell me which log10 clearance is on file for O=C([O-])CCSC(CCc1ccccc1-c1nc[nH]n1)c1cccc(OCc2ccc3ccc(Cl)cc3n2)c1.[Na+] (stereo not given) ?
1.81

Could you tell me which log10 clearance is on file for CCC(CSC(CCc1ccccc1C#N)c1cccc(CCc2ccc3ccc(Cl)cc3n2)c1)C(=O)[O-].[Na+] (stereo not given) ?
1.11

Could you tell me which log10 clearance is on file for CS(=O)(=O)Nc1ccccc1CCC(SCCC(=O)[O-])c1cccc(OCc2ccc3ccc(Cl)cc3n2)c1.[Na+] (stereo not given) ?
2.12

Could you tell me which log10 clearance is on file for NS(=O)(=O)c1ccccc1CCC(SCCC(=O)[O-])c1cccc(OCc2ccc3ccc(Cl)cc3n2)c1.[Na+] (stereo not given) ?
2.03

Could you tell me which log10 clearance is on file for CCC(CSC(CCc1ccccc1-c1nnnn1C)c1cccc(OCc2ccc3ccc(Cl)cc3n2)c1)C(=O)[O-].[Na+] (stereo not given) ?
1.26
